# TESTED_SYSTEM: T1, TNFR1 (Homo sapiens, UniProt P19438)
# T1 chain: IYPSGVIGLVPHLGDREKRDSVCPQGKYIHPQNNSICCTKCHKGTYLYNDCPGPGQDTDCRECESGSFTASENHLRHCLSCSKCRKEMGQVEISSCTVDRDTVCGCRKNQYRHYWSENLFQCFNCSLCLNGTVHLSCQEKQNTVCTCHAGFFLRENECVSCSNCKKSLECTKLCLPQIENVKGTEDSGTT
# EXPERIMENT_SUMMARY: yeast display SC50
Listed binders paired with reported apparent Kd (screen)
I only need the number, in nM, no unit after it.

// worked examples, apparent Kd (screen) included
BINDER: E81K (designed binder) SMEEEVEKAAKEYEKKKKEAIEKHLEKLKAKDKEAAERFLKELEEAAKEYAKDEAKTMSEEEAKRRAKKYKEKVLLSELSKEEQKEIKEAEEKLVRTILKYVEEAAK
apparent Kd (screen) / nM: 0.593

BINDER: K17A (designed binder) SMEEEVEKAAKEYEKKAKEAIEKHLEKLKAKDKEAAERFLKELEEAAKEYAKDEAKTMSEEEAKRRAKKYKEKVLLSELSEEEQKEIKEAEEKLVRTILKYVEEAAK
apparent Kd (screen) / nM: 1.86

Problem: Could you tell me which apparent Kd (screen) is on file for L40I (designed binder) SMEEEVEKAAKEYEKKKKEAIEKHLEKLKAKDKEAAERFIKELEEAAKEYAKDEAKTMSEEEAKRRAKKYKEKVLLSELSEEEQKEIKEAEEKLVRTILKYVEEAAK ?
Solution: 0.79
